Reference source: PubChem BioAssay AID1918941

Each item that follows carries a reported pIC50.
- Test system: SW 1271 complex spheroids, viability
- Test Name: Anticancer human tumor SW 1271 cell line growth inhibition [LSD1];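 note: spheroids exposed to agents for 7 days before luminescence read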
- Test Settings: curve of first compound; second compound 1 µM
pIC50: −log10 of the molar value.

Answered cases to consult:
> print(dat)
                                   compound  recorded.result
1  CC1COCCN1c1cc(C2(S(C)(=N)=O)CC2)nc(-c2ccnc3[nH]ccc23)n1 (stereo unspecified) + NC1CC1c1ccc(-c2cccc(O)c2)cc1           < 5.00
2  Nc1ncn(C2CC(O)C(CO)O2)c(=O)n1 (stereo unspecified) + NC1CCC(NC2CC2c2ccccc2)CC1           < 6.00
3  CC1COCCN1c1cc(C2(S(C)(=N)=O)CC2)nc(-c2ccnc3[nH]ccc23)n1 (stereo unspecified) + NC1CCC(NC2CC2c2ccccc2)CC1           < 5.00
4  Nc1ncn(C2CC(O)C(CO)O2)c(=O)n1 (stereo unspecified) + NC1CC1c1ccc(-c2cccc(O)c2)cc1           < 6.00
5  CCN(c1cc(-c2ccc(CN3CCOCC3)cc2)cc(C(=O)NCc2c(C)cc(C)[nH]c2=O)c1C)C1CCOCC1 + NC1CC1c1ccc(-c2cccc(O)c2)cc1           < 5.52

Proceed to the following item.
Quote SW 1271 complex spheroids, viability pIC50 for entry Cn1ncnc1C1c2n[nH]c(=O)c3cc(F)cc(c23)NC1c1ccc(F)cc1 (stereo unspecified) + NC1CCC(NC2CC2c2ccccc2)CC1 .
< 7.00

====

- Tested on: SW 1271 complex spheroids, viability
- Test Name: Anticancer human tumor SW 1271 cell line growth inhibition [LSD1];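 note: spheroids exposed to agents for 7 days before luminescence read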
- Test Settings: curve of first compound; second compound 1 µM
Observed Property: IC50

Please report IC50 for the following compound: CC(C)c1c(-c2ccccc2)nc2c(C#N)c[nH]n2c1=O + NC1CC1c1ccc(-c2cccc(O)c2)cc1
> 10000 nM

Assign IC50 to the following record: CCN(c1cc(-c2ccc(CN3CCOCC3)cc2)cc(C(=O)NCc2c(C)cc(C)[nH]c2=O)c1C)C1CCOCC1 + NC1CCC(NC2CC2c2ccccc2)CC1
> 3000 nM

Indicate the recorded IC50 value for this compound: CC[C@@]1(O)C(=O)OCc2c1cc1n(c2=O)Cc2cc3c(CN(C)C)c(O)ccc3nc2-1 + NC1CC1c1ccc(-c2cccc(O)c2)cc1
27.8 nM

State its IC50: CC1COCCN1c1cc(-c2ccnn2C)c2ccnc(-c3ccn[nH]3)c2n1 (stereo not given) + NC1CC1c1ccc(-c2cccc(O)c2)cc1
37.2 nM

Give me measured IC50, please, for this compound: CCc1c2c(nc3ccc(O)cc13)-c1cc3c(c(=O)n1C2)COC(=O)[C@]3(O)CC + NC1CC1c1ccc(-c2cccc(O)c2)cc1
< 0.949 nM

Look up and report measured IC50 for this entry: CC(C)c1c(-c2ccccc2)nc2c(C#N)c[nH]n2c1=O + NC1CCC(NC2CC2c2ccccc2)CC1
> 10000 nM

Supply measured IC50 of Nc1ccn(C2OC(CO)C(O)C2(F)F)c(=O)n1 (stereo not given) + NC1CCC(NC2CC2c2ccccc2)CC1 in your reply.
> 300 nM

Could you please provide reported IC50 for Nc1ccccc1NC(=O)c1ccc(CNC(=O)OCc2cccnc2)cc1 + NC1CC1c1ccc(-c2cccc(O)c2)cc1 ? Thanks!
62.6 nM

Query IC50 for NS(=O)(=O)OCC1CC(n2ccc3c(NC4CCc5ccccc54)ncnc32)CC1O (stereo not given) + NC1CC1c1ccc(-c2cccc(O)c2)cc1
> 3000 nM

Return IC50 for the following compound: O=C(c1cc(Cc2n[nH]c(=O)c3ccccc23)ccc1F)N1CCN(C(=O)C2CC2)CC1 + NC1CCC(NC2CC2c2ccccc2)CC1
> 10000 nM

====

- Tested on: SW 1271 complex spheroids, viability
- Test Name: Anticancer human tumor SW 1271 cell line growth inhibition [LSD1];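 note: spheroids exposed to agents for 7 days before luminescence read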;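 for viability, T/C: 100% = DMSO vehicle control viability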
- Test Settings: second compound 1 µM; first compound 0.0316 µM; stronger effect = lower value
# Lookup of reported viability, T/C keyed by entry
Number in %, nothing else.

> print(dat)
                                   compound  observed.property  recorded.result
1  CC(C)c1c(-c2ccccc2)nc2c(C#N)c[nH]n2c1=O + NC1CC1c1ccc(-c2cccc(O)c2)cc1     viability, T/C             66.4
2  CC1COCCN1c1cc(-c2ccnn2C)c2ccnc(-c3ccn[nH]3)c2n1 (stereo not drawn) + NC1CCC(NC2CC2c2ccccc2)CC1     viability, T/C             56.2

Proceeding to the next compound to report its viability, T/C.
Check the records and state viability, T/C for O=C(c1cc(Cc2n[nH]c(=O)c3ccccc23)ccc1F)N1CCN(C(=O)C2CC2)CC1 + NC1CCC(NC2CC2c2ccccc2)CC1
82.7

====

- System: SW 1271 complex spheroids, viability
- Test Name: Anticancer human tumor SW 1271 cell line growth inhibition [LSD1];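 note: spheroids exposed to agents for 7 days before luminescence read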;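 for viability, T/C: 100% = DMSO vehicle control viability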
- Test Settings: second compound 0.1 µM; first compound 0.00949 µM; stronger effect = lower value
Observed Property: viability, T/C (%)
State the answer as a number, implicitly in %.

Sample records with viability, T/C:
> print(dat)
                                   molecule  observed.property  recorded.result
1  O=C(C=Cc1cccc(S(=O)(=O)Nc2ccccc2)c1)NO + NC1CCC(NC2CC2c2ccccc2)CC1     viability, T/C             72.1
2  Nc1ccccc1NC(=O)c1ccc(CNC(=O)OCc2cccnc2)cc1 + NC1CCC(NC2CC2c2ccccc2)CC1     viability, T/C             89.1

Tell me its viability, T/C on SW 1271 complex spheroids, viability: Nc1ncn(C2CC(O)C(CO)S2)c(=O)n1 (stereo not drawn) + NC1CCC(NC2CC2c2ccccc2)CC1
92.1

====

- System: SW 1271 complex spheroids, viability
- Test Name: Anticancer human tumor SW 1271 cell line growth inhibition [LSD1]; active means viability on the fitted dose curve at most 10% of control; inactive means the rest;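 note: spheroids exposed to agents for 7 days before luminescence read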
- Test Settings: second compound 1 µM; first compound 0.00316 µM
Respond using exactly one of the listed classes: active, inactive

> print(dat)
                                   molecule  answer.label
1  O=C(C=Cn1cnc(-c2cc(C(F)(F)F)cc(C(F)(F)F)c2)n1)NNc1cnccn1 + NC1CC1c1ccc(-c2cccc(O)c2)cc1      inactive
2  Cn1ncnc1C1c2n[nH]c(=O)c3cc(F)cc(c23)NC1c1ccc(F)cc1 (configuration not stated) + NC1CC1c1ccc(-c2cccc(O)c2)cc1      inactive
3  CC[C@@]1(O)C(=O)OCc2c1cc1n(c2=O)Cc2cc3c(CN(C)C)c(O)ccc3nc2-1 + NC1CC1c1ccc(-c2cccc(O)c2)cc1      inactive
4  CC[C@@]1(O)C(=O)OCc2c1cc1n(c2=O)Cc2cc3c(CN(C)C)c(O)ccc3nc2-1 + NC1CCC(NC2CC2c2ccccc2)CC1      inactive
5  Cn1ncnc1C1c2n[nH]c(=O)c3cc(F)cc(c23)NC1c1ccc(F)cc1 (configuration not stated) + NC1CCC(NC2CC2c2ccccc2)CC1      inactive

Which outcome did this test record for the molecule CC1COCCN1c1cc(-c2ccnn2C)c2ccnc(-c3ccn[nH]3)c2n1 (configuration not stated) + NC1CC1c1ccc(-c2cccc(O)c2)cc1 ?
inactive

Each molecule tested received a call. Report the one for CC(C)CC(NC(=O)C(Cc1ccccc1)NC(=O)c1cnccn1)B(O)O (configuration not stated) + NC1CC1c1ccc(-c2cccc(O)c2)cc1 .
active

====

- System: SW 1271 complex spheroids, viability
- Test Name: Anticancer human tumor SW 1271 cell line growth inhibition [LSD1];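 note: spheroids exposed to agents for 7 days before luminescence read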;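 for viability, T/C: 100% = DMSO vehicle control viability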
- Test Settings: second compound 10 µM; first compound 0.03 µM; stronger effect = lower value
Observed Property: viability, T/C (%)
The reply should be a number in %, with the unit left off.

Reference set, count: 5
Compound	viability, T/C, %
Nc1ccn(C2OC(CO)C(O)C2(F)F)c(=O)n1 (stereo not drawn) + NC1CC1c1ccc(-c2cccc(O)c2)cc1	60.1
CCN(c1cc(-c2ccc(CN3CCOCC3)cc2)cc(C(=O)NCc2c(C)cc(C)[nH]c2=O)c1C)C1CCOCC1 + NC1CCC(NC2CC2c2ccccc2)CC1	105
O=C(C=Cc1cccc(S(=O)(=O)Nc2ccccc2)c1)NO + NC1CCC(NC2CC2c2ccccc2)CC1	75.7
O=C(C=Cc1cccc(S(=O)(=O)Nc2ccccc2)c1)NO + NC1CC1c1ccc(-c2cccc(O)c2)cc1	59.9
Nc1ncn(C2CC(O)C(CO)S2)c(=O)n1 (stereo not drawn) + NC1CC1c1ccc(-c2cccc(O)c2)cc1	66.5

# return recorded viability, T/C for input Nc1ccccc1NC(=O)c1ccc(CNC(=O)OCc2cccnc2)cc1 + NC1CCC(NC2CC2c2ccccc2)CC1
92.6

Provide measured viability, T/C value, entry: NS(=O)(=O)OCC1CC(n2ccc3c(NC4CCc5ccccc54)ncnc32)CC1O (stereo not drawn) + NC1CC1c1ccc(-c2cccc(O)c2)cc1
116

Quote viability, T/C reported for Nc1ncn(C2CC(O)C(CO)S2)c(=O)n1 (stereo not drawn) + NC1CCC(NC2CC2c2ccccc2)CC1 please.
83.9
